Tested on: biotinyl-Ile-oxazolone
Test: self-aminoacylation, catalytic enhancement (BIO) (fold over background); higher = more active; k-Seq, kA / k0A0; sequences stand for … in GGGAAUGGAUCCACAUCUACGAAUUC…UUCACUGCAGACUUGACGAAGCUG
This sample holds only a part of the variants without activity.
Label satisfied when self-aminoacylation is at or above 0.9; otherwise label not satisfied.

                              sequence_text       system_under_test     class_name
0  CCACCCUUGAAGCAAUCGGUC [Fam1B.1 aminoacylation ribozyme variant]  biotinyl-Ile-oxazolone      satisfied
1  CCACACUUCAAGCAAUCUGAC [Fam1B.1 aminoacylation ribozyme variant]  biotinyl-Ile-oxazolone  not satisfied
2  AUUACCCUGGGCAUCGAGUCA [Fam2.1 aminoacylation ribozyme variant]  biotinyl-Ile-oxazolone      satisfied
3  AAGUUUGCUGAUAGUCGCUAG [Fam3.1 aminoacylation ribozyme variant]  biotinyl-Ile-oxazolone      satisfied
4  CCACACUUCAAUCAAGCGGUC [Fam1B.1 aminoacylation ribozyme variant]  biotinyl-Ile-oxazolone  not satisfied
5  CCGCACUUCAAGCAAUCGUUC [Fam1B.1 aminoacylation ribozyme variant]  biotinyl-Ile-oxazolone  not satisfied
6  CCACACUCCAAGAAAUCGGUC [Fam1B.1 aminoacylation ribozyme variant]  biotinyl-Ile-oxazolone      satisfied

Hello, the source for this data is the supplement of paper PMC9233669, in case you need it.
